- tested.target: T1, human LAG3 (human, UniProt P18627 29-450, limits assumed)
- T1 construct: also called hLAG3
- T1 sequence: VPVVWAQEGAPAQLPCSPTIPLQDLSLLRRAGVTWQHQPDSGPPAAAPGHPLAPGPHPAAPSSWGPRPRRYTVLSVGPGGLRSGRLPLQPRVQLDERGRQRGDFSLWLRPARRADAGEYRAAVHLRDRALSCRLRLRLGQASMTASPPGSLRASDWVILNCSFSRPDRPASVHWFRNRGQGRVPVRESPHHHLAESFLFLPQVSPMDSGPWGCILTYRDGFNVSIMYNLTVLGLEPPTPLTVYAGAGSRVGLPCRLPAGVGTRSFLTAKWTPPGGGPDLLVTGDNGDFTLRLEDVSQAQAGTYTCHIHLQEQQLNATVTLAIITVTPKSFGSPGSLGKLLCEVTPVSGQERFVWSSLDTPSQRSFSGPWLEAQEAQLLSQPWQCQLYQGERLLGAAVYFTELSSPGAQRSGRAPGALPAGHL
- procedure.details: BLI (Octet) as in Examples 1-4, His-tagged VHH, human LAG3
readout.kind: koff (s⁻¹)

Some solved cases for reference:
| binder | koff, s⁻¹ |
| --- | --- |
| LG9 (VHH, not shown: C-terminal His-tag) VHH: EVQLVESGGGLVQPGGSLRLSCAASGSTIDDYPIGWFRQAPGKEREGVSCIDDSDESTYYADSVKGRFTISRDNAKNTVYLQMNSLKPEDTAVYYCARGAIFMIDGVDVFLTYYYDSWGQGTQVTVSS | 0.00011 |
| hLG9 (VHH, also called LG9H; not shown: C-terminal His-tag) VHH: EVQLLESGGGLVQPGGSLRLSCAASGSTIDDYPMSWFRQAPGKGREGVAAIDDSDESTYYADSVKGRFTISRDNSKNTLYLQMNSLRAEDTAVYYCARGAIFMIDGVDVFLTYYYDSWGQGTLVTVSS | 0.000298 |

I = LG6 (VHH, not shown: C-terminal His-tag) VHH: EVQLVESGGGLVQAGGSLRLSCAVSGSIFSISTMGWYRQAPGKQRELVASITARGSADYADSVKGRFTISRDNAKNTVYLQMSSLKPEDTAVYYCNTDTRSTLYHYSWGQGTQVTVSS
II = LG2 (VHH, not shown: C-terminal His-tag) VHH: QVQLVESGGGLVQPGGSLRLSCAASGTIFSINAMGWYRQAPGKQRELVAIVTFGGSTNYADSVKGRFTISRDNAKNTVYLQMNSLKPEDTAVYYCSARNVQSPVQYHLAVWGQGTLVTVSS
Lab log: flag the item ( I or II ) with the smaller koff figure. API: response body contains the label of the selected item.
I
